Source: ChEMBL document CHEMBL3507680

Reported values of cytotoxicity at 70.5 h for individual entries
Experiment: Human HepG2 cell viability assay in 384 well format
Format: toxicity, cell-based
Design: dose 125 nL, time 70.5 hour; concentration not given beside the values
Settings: HepG2 cells, read-out: Inhibition
Report only the number, with the unit % understood.

Here are 5 molecules together with their reported answers.
| SMILES_REPRESENTATION | REPORTED_VALUE |
| --- | --- |
| COCCN1C(=O)C[C@H]2[C@H]1CCN2Cc1ccccc1 | -4.06 |
| CN(Cc1ccccc1)C(=O)Cn1nc(N2CCSCC2)ccc1=O | -6.57 |
| CN1CCN(C[C@@H]2OC[C@H]3CN(Cc4ccsc4)CC[C@H]32)CC1 | -4.59 |
| O=C(CNc1cc2c(cc1Cl)OCCCO2)NCc1ccc(F)cc1 | -4.01 |
| CNC(=O)[C@@H]1CN(C(=O)C2CCC2)C[C@H]1c1ccnc(N2CCCC2)n1 | -0.284 |

GET /values?readout=cytotoxicity at 70.5 h&item= O=C1CC2(CCN(CCCF)CC2)CN1Cc1cc(F)cc(F)c1
8.23

Queued: CC(=O)N1CCN(c2cc(-c3ccccc3)nc3c(C)c(C)nn23)CC1
0.357

---

Assay: Human HepG2 cell viability assay in 384 well format
Assay type: toxicity, cell-based
Parameters: dose 125 nL, time 70.5 hour; concentration not given beside the values
Conditions: HepG2 cells, read-out: Inhibition
OBSERVED_PROPERTY: cytotoxicity at 70.5 h (%)
Give the value in % but do not write % after it.

Here's what some known entries look like.
| MOLECULE | cytotoxicity at 70.5 h (%) |
| --- | --- |
| CC(C)CCNC(=O)c1ccc(-n2cnc3ccccc3c2=O)cc1 | -27.3 |
| Cc1nccc(CNS(=O)(=O)N(C)Cc2ccc(Cl)cc2)n1 | 8.78 |
| Cc1nc(C)n(CC2CCCN2CC(=O)NCCc2ccsc2)n1 (stereo not drawn) | 3.16 |
| CC(C)[C@@H]1CN(Cc2ccccc2C#N)C[C@H]1C(=O)O | 21 |

Which cytotoxicity at 70.5 h value is on record for OCCN(Cc1ccccc1)Cc1nc(-c2ccc3c(c2)OCO3)no1 ?
-9.5

Would you kindly repeat that for Cc1cc(Cc2ccc(F)cc2)cc(C2CCCNC2)n1 (stereo not drawn) ?
16.9

Next molecule: Cc1ccc([C@@H]2CN(S(=O)(=O)N(C)C)C[C@H]2N(C)C)cc1
-5.83

One more molecule: COCc1ncc(CN2CCC3(CCNCC3)CC2)cn1
-2.36

Moving on to CN(C)CC(=O)N1CCc2onc(Cn3cccn3)c2C1
-9.72

Repeat with CN1C(=O)CO[C@H](c2ccc(NC(=O)Nc3ccccc3)cc2)[C@H]1CO
-7.02

---

Assay: Human HepG2 cell viability assay in 384 well format
Type: toxicity, cell-based
Design: dose 125 nL, time 70.5 hour; concentration not given beside the values
Details: HepG2 cells, read-out: Inhibition
Reported cytotoxicity at 70.5 h values are given for each entry in this list.
Numbers only; they are read as %.

For CCS(=O)(=O)N1CCC(c2nnc(CN3CCOCC3)n2C)CC1 , what is its reported cytotoxicity at 70.5 h?
-2.17

// next record COc1c(C2CCCN2C(=O)c2cnc(C)cn2)c(C)nn1C (stereo not given)
10.6

What do you have for CN(Cc1nnc(C2CC2)n1C)C1CCN(CCc2cccs2)C1 (stereo not given) ?
-6.98

Note, next up: Cn1cc(NS(=O)(=O)c2ccc(C(F)(F)F)cc2)ccc1=O
-9.18

Try this molecule too: COc1cc(NC2CCN(C3CCS(=O)(=O)CC3)CC2)ncn1
-20.6
